Target: T1, Polyhistidine-tagged recombinant human UCH-L1 expressed from E. coli (human, UniProt P09936 1-223, limits assumed)
T1 construct: also called UCH-L1-His; not shown: polyhistidine tag
T1 sequence (P09936 whole entry): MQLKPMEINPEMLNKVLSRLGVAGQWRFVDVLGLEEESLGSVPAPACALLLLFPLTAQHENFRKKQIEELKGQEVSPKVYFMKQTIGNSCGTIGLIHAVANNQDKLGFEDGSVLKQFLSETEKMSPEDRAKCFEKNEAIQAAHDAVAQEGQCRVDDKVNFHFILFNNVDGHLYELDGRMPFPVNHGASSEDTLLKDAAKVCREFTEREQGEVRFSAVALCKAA
Test: BLI (Octet QKe); His-tagged UCH-L1 on anti-Penta-HIS sensor, antibody in solution

# binder, relation_qualifier, Kd, nM
rows = [
    ("UCH-L1-1 (antibody, V domains shown, also called mouse anti-UCH-L1 antibody UCH-L1-1) VH: QVQLQQPGSELVRPGASVKLSCKASGYTFTSYWMHWVKQRPGQGLEWIGNIYPGSGSTNYDEKFKSKATLTVDTSSSTAYMQLSSLTSEDSAVYYCTREDYWGQGTTLTVSS VL: DVLMTQTPLSLPVSLGDQASISCRSSQNIVHSNGNTYLEWYLQKPGQSPKLLIYKVSNRFSGVPDRFSGSGSGTDFTLKISRVEAEDLGVYYCFQGSHVPFTFGSGTKLEIK", "<", 0.001),
    ("UCH-L1-5 (antibody, V domains shown, also called mouse anti-UCH-L1 antibody UCH-L1-5; HRP-labeled anti-UCH-L1 detection antibody) VH: EVKLVESGGGSVQPGGSLSLSCAASGFTFTEYYMSWVRQFPGKALEWLAFIRNRAHGYTTEYSASVKGRFTISRDNSQSILYLQMNALRTEDSATYYCASSYGAPFAYWGQGTLVSVSA VL: DIVMTQAAPSVPVTPGESVSISCRSSKSLLHSDGNTYLYWFLQRPGQSPQLLIYRMSNLASGVPDRFSGSGSGTAFTLRISRVEAEDVGVYYCMQHLEYPLTFGAGTKLELK", "<", 0.001),
    ("UCH-L1-10 (antibody, V domains shown, also called mouse anti-UCH-L1 antibody UCH-L1-10) VH: EVQLQQSGPDLVKPGTSVKISCKTSGYTFTEYTMHWVKQSHGRSLEWIGGFNPNNGRTSYNQKFKGKATLTVDKSSSTAYMELRSLTSEDSAVYYCSRRLYRGFYFDYWGQGTTLTVSS VL: DIVLTQSPASLAVSLGQRATISCRASESVDSYGNNLMHWYQQKPGQSPKLLIYRASNLESGIPGRFSGRGSRTDFSLTINPVEADDVATYYCQQSNGDPYTFGGGTKLEIK", "=", 0.043),
    ("UCH-L1-2 (antibody, V domains shown, also called mouse anti-UCH-L1 antibody UCH-L1-2) VH: EVMLVESGGGLVKPGGSLKLSCAASGFIFSSHAMSWIRQIPEKRLEWVATISSGGSNTYYPDSVKGRFTISRDNAKNILYLQMSSLRSEDTAIYYCTRHGEVRRGYYFDYWGQGTTLTVSS VL: DIQMTQTPSSLSASLGDRVTISCSASQGITNYLNWYQQKPDGTVKLLIYYTSSLHSGVPSRFSGSGSGTDYSLTISNLEPEDFATYYCQHYSNLPWTFGGGTKLEIK", "=", 0.207),
]
